- Assay: recombinant barcode read abundance after kanamycin selection (control-corrected) (log10(CPM+1)); higher = more efficient recombination; sequences stand for … in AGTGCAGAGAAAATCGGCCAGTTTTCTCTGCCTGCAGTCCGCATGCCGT…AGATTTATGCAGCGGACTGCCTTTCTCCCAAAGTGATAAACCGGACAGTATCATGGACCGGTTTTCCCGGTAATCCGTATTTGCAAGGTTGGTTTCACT; site = the 11-nt target;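 further: IS621 recombinase and bridge RNA in Escherichia coli cells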
Please enter YES where recombinant barcode read abundance (log10) is greater than or equal to 0.1, and NO where it is lower.

Could you verify whether the entry ATACGGACTTGGGTTCTAACCTGTTGCAG (site ATATGTACTCT) shows recombinant barcode read abundance (log10) of no less than 0.1?
YES

// repeat for TACGTGGCTTGGGTTCTAACCTGTTGCCT (site TACGAGGCTAG) and report
YES

What about this sequence? AACGCCACTTGGGTTCTAACCTGTTGCCT (site GACGCCACTAG)
NO

Cool, now TCTCCTCCTTGGGTTCTAACCTGTTGCAT (site TCTCCTCCTAT)
YES

And the next one, AGTTGGCCTTGGGTTCTAACCTGTTGCAG (site AGTTGGCCTCT) ?
YES

Moving on to AGCAGGGCTTGGGTTCTAACCTGTTGCAG (site AGCAGGGCTCT)
YES

Try the sequence ATTGCTCCTTGGGTTCTAACCTGTTGCCT (site ATTGGTCCTAT)
YES

Please answer likewise for CTATGGACTTGGGTTCTAACCTGTTGCAG (site CTATGGACTCT)
YES

And then GAGCTGACTTGGGTTCTAACCTGTTGCCT (site GAGCTGACTAG) , what is it?
YES

Thanks! And CTTCGGACTTGGGTTCTAACCTGTTGCAA (site CTTCGGACTTT) ?
YES

Ok, now GTCGGAACTTGGGTTCTAACCTGTTGCCT (site GTCGGTACTAG)
NO

Record: CGTCACACTTGGGTTCTAACCTGTTGCCT (site CGACACACTAG)
NO

What do you get for GACTTCCCTTGGGTTCTAACCTGTTGCAT (site GACTTCCCTAT) ?
YES

###

Task for the reader: assign each of the following sequences its reported recombinant barcode read abundance (log10).
- Assay: recombinant barcode read abundance after kanamycin selection (control-corrected) (log10(CPM+1)); higher = more efficient recombination; sequences stand for … in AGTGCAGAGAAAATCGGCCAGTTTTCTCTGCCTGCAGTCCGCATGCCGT…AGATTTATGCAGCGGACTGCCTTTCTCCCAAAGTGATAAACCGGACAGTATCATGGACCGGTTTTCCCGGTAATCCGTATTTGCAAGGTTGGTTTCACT; site = the 11-nt target
Answer using only a numeral; do not append any unit.

recombinant barcode read abundance (log10) for ACAGAATCTTGGGTTCTAACCTGTTGCCT (site ACAGGATCTAA) ?
0.0318

Same read-out for TAGTTAGCTTGGGTTCTAACCTGTTGCCG (site TAGTTAGCTAG) ?
0.0808

Okay, and GGACGGGCTTGGGTTCTAACCTGTTGCAG (site GAACGGGCTCC) ?
0.0984

Next up: TTGTGTTCTTGGGTTCTAACCTGTTGCTT (site TTGTACTCTAA)
0.00637

Further, for TCGGATACTTGGGTTCTAACCTGTTGCAT (site TCGGATACTAG) ?
0.173

Try the sequence CAGATGACTTGGGTTCTAACCTGTTGCCT (site CAGATGACTAG)
1.52

Please answer likewise for TATTTCTCTTGGGTTCTAACCTGTTGCCT (site CATTTCTCTAG)
0.0799

// next record TAGGATTCTTGGGTTCTAACCTGTTGCCT (site TAGGATTCTAG)
1.88

GAAGTCACTTGGGTTCTAACCTGTTGCCT (site TAAGTCACTAG) , same question.
1.6

Queued: TGGAGTACTTGGGTTCTAACCTGTTGCCT (site TGGAGTACTAG)
0.874

Try this sequence too: TAAAGTACTTGGGTTCTAACCTGTTGCTT (site TAATGTACTAA)
0.0546

Param item: TTCAAACCTTGGGTTCTAACCTGTTGCCT (site TTCAAACCTAG)
0.612

Then GATGGTCCTTGGGTTCTAACCTGTTGCGG (site GACGGTCCTCC) ?
0.306

Follow-up entry: GTAAACTCTTGGGTTCTAACCTGTTGCCT (site GTGAACTCTAG)
0.0821

Proceed to TAGGCGCCTTGGGTTCTAACCTGTTGCCT (site TAGGCGCCTAT)
0.235

Now this one: GAGTCGCCTTGGGTTCTAACCTGTTGCGG (site GAGTCGCCTCC)
1.22

Next sequence: TGTTGCACTTGGGTTCTAACCTGTTGCCT (site TGTTGCACTAG)
0.0616

Also, GACGCGGCTTGGGTTCTAACCTGTTGCCT (site GACGCGGCTAG) please.
0.184

Ok, now TGGCAGGCTTGGGTTCTAACCTGTTGCCT (site TGGCAGTCTAG)
0.0352

Same for TCACAGTCTTGGGTTCTAACCTGTTGCCT (site TAACACTCTAG)
0.0324

Now try CAACCGCCTTGGGTTCTAACCTGTTGCCT (site CAACCGTCTAG) .
0.864

Can you check TAGAACCCTTGGGTTCTAACCTGTTGCTT (site TAGAACCCTAA) next?
0.367

Moving on to GAGCTACCTTGGGTTCTAACCTGTTGCCG (site GAGCTACCTCG)
1.11

And what about the sequence GTTCCATCTTGGGTTCTAACCTGTTGCCT (site GCTCCATCTAG) ?
0.28

Same lookup for GATCGGACTTGGGTTCTAACCTGTTGCGG (site GTTCGGACTCC) , please.
0.596

Next sequence up: ACTGATGCTTGGGTTCTAACCTGTTGCCT (site ACTGATCCTAG)
0.0449

And the next one, ATAAAACCTTGGGTTCTAACCTGTTGCCT (site TTAAAACCTAG) ?
0.244

# iterate: GAAGGGCCTTGGGTTCTAACCTGTTGCCT (site GAAGGGCCTAG)
0.723

Input ATAGGACCTTGGGTTCTAACCTGTTGCCG (site ATAGGACCTCG)
2.36

Also AGGTCACCTTGGGTTCTAACCTGTTGCCT (site AGGTCACCTAC) , if possible.
0.897

Please answer likewise for CTCTCGACTTGGGTTCTAACCTGTTGCCA (site CTCTCCACTTG)
0.0478

Here is the next sequence: TATCCTCCTTGGGTTCTAACCTGTTGCCG (site GTGGAGTCTAC)
0.177

Queued: AGCAGTCCTTGGGTTCTAACCTGTTGCTG (site AGCAGTCCTCA)
0.802

Then this sequence: GCCGAGTCTTGGGTTCTAACCTGTTGCTC (site GCCGAGTCTGA)
1.2

Follow-up entry: GGGACTTCTTGGGTTCTAACCTGTTGCAT (site GGGTCTTCTAT)
0.164

Same read-out for ATTCGGCCTTGGGTTCTAACCTGTTGCCT (site AGTCGGCCTAG) ?
0.038

Thanks! And CCTGCGACTTGGGTTCTAACCTGTTGCCT (site CCTGCGGCTAG) ?
0.0687

Another: ACCCTAACTTGGGTTCTAACCTGTTGCCG (site ACCCTAACTCG)
2.03

# repeat for CTCGTTACTTGGGTTCTAACCTGTTGCCT (site CTCGTGACTAG)
0.0469

Okay, and GACAGGCCTTGGGTTCTAACCTGTTGCGT (site GACAGGCCTAC) ?
1.31
